Experiment: Binding affinity to human His6-HALO-TEV DCAF15/DDB1/DDA1 complex assessed as displacement of fluorophore tagged indisulam analogue from complex measured after 1 hr by TR-FRET assay
pIC50 values for the compounds below.
Worth noting: pIC50 values are minus log10 of concentrations stated in mol/L.

Would you please look over these solved cases?
line.notation | observed
CNC(=O)C1CN(C(=O)c2oc(S(=O)(=O)Nc3ccc(Cl)c4c(Cl)c[nH]c34)cc2C)C1 | 6.01
Cc1cc(S(=O)(=O)Nc2ccc(Cl)c3c(Cl)c[nH]c23)sc1C(=O)N(C)C | 6.65
CN(C)C(=O)c1oc(S(=O)(=O)Nc2ccc(Cl)c3c(Cl)c[nH]c23)cc1Cl | 6.40
N#Cc1cccc(S(=O)(=O)Nc2ccc(Cl)c3c(Cl)c[nH]c23)c1 | 6.15
N#Cc1cccc(S(=O)(=O)Nc2cc(Cl)cc3c(Cl)c[nH]c23)c1 | 5.84
CNC(=O)C1CCN(C(=O)c2oc(S(=O)(=O)Nc3ccc(Cl)c4c(Cl)c[nH]c34)cc2C)CC1 | 7.28
Cc1cc(S(=O)(=O)Nc2ccc(Cl)c3c(Cl)c[nH]c23)oc1C(=O)N1CCN(C)CC1 | 6.41

What value of pIC50 has been reported for the following compound? N#Cc1cccc(S(=O)(=O)Nc2ccc(C#N)c3c(Cl)c[nH]c23)c1
5.36

###

Test: Binding affinity to human His6-HALO-TEV DCAF15/DDB1/DDA1 complex assessed as displacement of fluorophore tagged indisulam analogue from complex measured after 1 hr by TR-FRET assay
assay.endpoint: pIC50
Worth noting: pIC50 values are minus log10 of concentrations stated in mol/L.

Would you please look over these solved cases?
line.notation | pIC50
CN(C)C(=O)c1nc(S(=O)(=O)Nc2ccc(Cl)c3c(Cl)c[nH]c23)cn1C | 6.07
Cc1coc(S(=O)(=O)Nc2ccc(Cl)c3c(Cl)c[nH]c23)c1 | 5.93
CN(C)C(=O)c1ccc(S(=O)(=O)Nc2ccc(Cl)c3c(Cl)c[nH]c23)o1 | 6.17

What value of pIC50 has been reported for the following compound? CNC(=O)[C@H]1CCN(C(=O)c2oc(S(=O)(=O)Nc3ccc(Cl)c4c(Cl)c[nH]c34)cc2C)C1
6.16
